- SYSTEM_UNDER_TEST: cruzain (Trypanosoma cruzi)
- Construct: inferred from Ni-NTA purification of the pro-enzyme; made in house; host or cells: Escherichia coli (M15)
- EXPERIMENT_SUMMARY: Cruzain inhibition assay (cleavage of fluorogenic substrate Z-Phe-Arg-AMC)
- Format: biochemical
- STUDY_CONDITIONS: at 100 μM inhibitor; mean of three measurements; read-out: Percent inhibition against cruzain
Entries and their measured inhibition at 100 µM follow.
Kindly answer with a numeric value in %, unit omitted.

COMPOUND: COc1ccc(NC(=O)COC(=O)[C@H](CC(C)C)N2C(=O)CCC2=O)cc1Cl [10d]
UNIT_OF_MEASUREMENT: %
ASSAY_VALUE: 88

COMPOUND: COc1ccc(NC(=O)COC(=O)[C@H](CC(C)C)N2CCNCC2)cc1Cl.Cl [10o]
UNIT_OF_MEASUREMENT: %
ASSAY_VALUE: 35

COMPOUND: COc1ccc(NC(=O)COC(=O)[C@H](CC(C)C)N2C(=O)C=C(C)C2=O)cc1Cl [10e]
UNIT_OF_MEASUREMENT: %
ASSAY_VALUE: 94

Which inhibition at 100 µM is reported with cruzain (Trypanosoma cruzi) for this entry: COc1ccc(NC(=O)COC(=O)[C@H](CC(C)C)N2CCCC2)cc1Cl [10k] ?
6

Which inhibition at 100 µM is reported with cruzain (Trypanosoma cruzi) for this entry: COc1ccc(NC(=O)COC(=O)[C@H](CC(C)C)N2C(=O)C3CC=CCC3C2=O)cc1Cl (some centres unmarked) [3a] ?
88

Which inhibition at 100 µM is reported with cruzain (Trypanosoma cruzi) for this entry: CC(C)C[C@@H](C(=O)OCC(=O)Nc1ccc(O)cc1)N1C(=O)C2CC=CCC2C1=O (some centres unmarked) [3h] ?
6

----------
- SYSTEM_UNDER_TEST: cruzain (Trypanosoma cruzi, UniProt P25779)
- Construct: inferred from Ni-NTA purification of the pro-enzyme; made in house; host or cells: Escherichia coli (M15)
- Sequence (P25779 123-337 limits assumed): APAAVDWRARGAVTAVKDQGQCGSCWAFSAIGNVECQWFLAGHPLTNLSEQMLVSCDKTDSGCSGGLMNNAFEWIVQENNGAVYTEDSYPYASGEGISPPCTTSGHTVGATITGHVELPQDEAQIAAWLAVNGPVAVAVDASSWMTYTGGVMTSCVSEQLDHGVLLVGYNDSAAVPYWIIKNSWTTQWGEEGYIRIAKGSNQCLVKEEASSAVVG
- EXPERIMENT_SUMMARY: Cruzain inhibition assay (cleavage of fluorogenic substrate Z-Phe-Arg-AMC)
- Assay type: biochemical
- STUDY_CONDITIONS: at 100 μM inhibitor; mean of three measurements; read-out: Percent inhibition against cruzain
OUTCOME_MEASURE: inhibition at 100 µM (%)
Kindly answer with a numeric value in %, unit omitted.

MOLECULE: COc1ccc(NC(=O)COC(=O)[C@H](Cc2ccccc2)N2C(=O)C=CC2=O)cc1Cl [10j]
SYSTEM_UNDER_TEST: cruzain (Trypanosoma cruzi, UniProt P25779)
UNIT_OF_MEASUREMENT: %
inhibition at 100 µM: 97
//
MOLECULE: CC(C)CC(C(=O)OCC(=O)Nc1ccc(N(C)C(=O)OC(C)(C)C)cc1)N1C(=O)C2CC=CCC2C1=O (centres unmarked)
SYSTEM_UNDER_TEST: cruzain (Trypanosoma cruzi, UniProt P25779)
UNIT_OF_MEASUREMENT: %
inhibition at 100 µM: 7
//
MOLECULE: COc1ccc(NC(=O)COC(=O)[C@H](CC(C)C)N2C(=O)C=CC2=O)cc1Cl [10c]
SYSTEM_UNDER_TEST: cruzain (Trypanosoma cruzi, UniProt P25779)
UNIT_OF_MEASUREMENT: %
inhibition at 100 µM: 95
//
MOLECULE: COc1ccc(NC(=O)COC(=O)[C@H](CC(C)C)N2CCN(C(=O)OC(C)(C)C)CC2)cc1Cl [10n]
SYSTEM_UNDER_TEST: cruzain (Trypanosoma cruzi, UniProt P25779)
UNIT_OF_MEASUREMENT: %
inhibition at 100 µM: 8
//
MOLECULE: CC(C)C[C@@H](C(=O)OCC(=O)Nc1ccc(F)cc1)N1C(=O)C2CC=CCC2C1=O (some centres unmarked)
SYSTEM_UNDER_TEST: cruzain (Trypanosoma cruzi, UniProt P25779)
UNIT_OF_MEASUREMENT: %
inhibition at 100 µM: 74

Give its inhibition at 100 µM value. Item: CC(C)C[C@@H](C(=O)OCC(=O)Nc1ccccc1)N1C(=O)C2CC=CCC2C1=O (some centres unmarked)
76

Give its inhibition at 100 µM value. Item: COc1ccc(NC(=O)CNC(=O)C(CC(C)C)N2C(=O)C3CC=CCC3C2=O)cc1Cl (centres unmarked)
38

Give its inhibition at 100 µM value. Item: COc1ccc(NC(=O)COC(=O)[C@H](CC(C)C)N2C(=O)c3ccccc3C2=O)cc1Cl [10a]
39

Give its inhibition at 100 µM value. Item: COc1ccc(NC(=O)COC(=O)[C@H](Cc2ccccc2)N2C(=O)C3CC=CCC3C2=O)cc1Cl (some centres unmarked) [10h]
96

Give its inhibition at 100 µM value. Item: CC(C)CC(C(=O)OCC(=O)Nc1ccc([N+](=O)[O-])cc1)N1C(=O)C2CC=CCC2C1=O (centres unmarked)
67

Give its inhibition at 100 µM value. Item: COc1ccc(NC(=O)COC(=O)[C@H](CC(C)C)N2C(=O)C3CCCCC3C2=O)cc1Cl (some centres unmarked) [10b]
75
